Please go through the items and note down their half-life.
Test: In vitro release kinetics: cleavage rate of the reversible bond from the conjugates
Assay type: physicochemical
Details: pH 7.4, 37° C., aqueous buffer (48 mM sodium phosphate, 20% acetonitrile), disappearance of the conjugate by LCMS (UV detection), curve fitting, read-out: t1/2 (pH 7.4) (converted)
Answers are plain numbers, in h.

CNCCCN(C)C(=O)Oc1ccc(C(C)[N+](C)(C)CCc2ccccc2)cc1 (centres unmarked)    1.3

What does the data say about its half-life? Entry: CNCCCN(C)C(=O)Oc1ccc(C(C)[n+]2cccc3ccccc32)cc1 (centres unmarked)
1.8
